Test system: poliovirus 3 (PV3)
PROTOCOL SUMMARY: microbe, parasite or virus in culture
Format: cell-based
REPORTED CONDITIONS: Enterovirus C, 72 h, read-out: EC50 PV3

- COMPOUND: "CC(C)CC(=O)C(=O)NC12C(=O)c3c(N)cccc3C1(O)Oc1cc(C(C)C)ccc12 (stereo not shown) [Example 49]"
  SYSTEM TESTED: "poliovirus 3 (PV3)"
  EC50: "< 0.1 µg/mL"
- COMPOUND: "CC(C)c1ccc2c(c1)OC1(O)c3ccccc3C(=O)C21N/C(=N\\C(=O)OC(C)(C)C)NC(=O)OC(C)(C)C (stereo not shown) [Example 55]"
  SYSTEM TESTED: "poliovirus 3 (PV3)"
  EC50: "> 10 µg/mL"
- COMPOUND: "COc1cc(C(=O)C(=O)NC23C(=O)c4cccc([N+](=O)[O-])c4C2(O)Oc2cc(C(C)C)ccc23)cc(OC)c1OC (stereo not shown) [Example 58]"
  SYSTEM TESTED: "poliovirus 3 (PV3)"
  EC50: "> 10 µg/mL"
- COMPOUND: "CC(C)c1ccc2c(c1)OC1(O)c3ccccc3C(=O)C21NC(=O)C(=O)Cc1ccccc1[N+](=O)[O-] (stereo not shown) [Example 3]"
  SYSTEM TESTED: "poliovirus 3 (PV3)"
  EC50: "< 1 µg/mL"
